Cited source for all entries: ChEMBL document CHEMBL2151015

- Assay procedure: Intrinsic clearance in rat hepatocytes assessed per 10^6 cells
Recorded metric: hepatocyte CLint (µL/min/1e6 cells)
Numeric only. Scale: µL/min/1e6 cells

# Compound, hepatocyte CLint / µL/min/1e6 cells
records = [
    ("CCCSc1nc(N2CCCC(C(=O)O)C2)ccc1C(=O)NC1CCCCC1 (stereo unspecified)", 6),
    ("CCCSc1nc(Oc2cccc(CCC(=O)O)c2)ccc1C(=O)NC1CCCCC1", 15),
]

Consider the compound shown here: CCCSc1nc(N2CCC[C@H](CC(=O)O)C2)ccc1C(=O)NC1CCCCC1 What is its recorded hepatocyte CLint? 8

Consider the compound shown here: CCCN(C)c1nc(N2CCC[C@@H](CC(=O)O)C2)ccc1C(=O)NC1CCCCC1 What is its recorded hepatocyte CLint? 12

---

- Assay procedure: Half life in rat at 1 to 3 mg/kg, po
- Format: ADME, organism-based
- Set-up: dose 1-3 mg/kg, route oral
- Measurement setup: in vivo
Recorded metric: half-life (h)
Numeric only. Scale: h

Consider the molecule shown here: CCCSc1nc(N2CCC[C@@H](CC(=O)O)C2)ccc1C(=O)NC1CCCCC1 [AZD-4017] What is its recorded half-life? 4.7

---

- Assay procedure: AUC (0 to t) in po dosed Sprague-Dawley rat measured up to 24 hrs
- Assay type: ADME, organism-based
- Design: time < 24 hr, route oral
- Measurement setup: plasma
Recorded metric: AUC(0-t) at 24 h (ng·h/mL)
Numeric only. Scale: ng·h/mL

Consider the molecule shown here: CCCSc1ncccc1C(=O)NC1CCCCC1 What is its recorded AUC(0-t) at 24 h? 80

---

- Assay procedure: Oral bioavailability in rat at 1 to 3 mg/kg
- Format: ADME, organism-based
- Measurement setup: in vivo
Recorded metric: bioavailability

Consider the molecule shown here: CCCSc1nc(N2CCC[C@@H](CC(=O)O)C2)ccc1C(=O)NC1CCCCC1 What is its recorded bioavailability? > 100%

---

- Assay procedure: Apparent permeability across human Caco2 cells
- Assay type: ADME, cell-based
- Measurement setup: Caco-2
Below, each of the molecules is paired with its reported Papp value.
Numeric only. Scale: nm/s

# Record smiles, Recorded metric, Units of measure, Endpoint result
measured = [
    ("O=S(=O)(Cc1c(F)cccc1F)N1CCN(c2ncccc2C(F)(F)F)CC1", "Papp", "nm/s", 100),
]

Consider the record given below.
Consider the molecule shown here: CCCSc1ncccc1C(=O)NC1CCCCC1 What is its recorded Papp? 270

---

- Assay procedure: Plasma clearance in rat at 1 to 3 mg/kg
- Type: ADME, organism-based
- Design: dose 1-3 mg/kg
Recorded metric: clearance
Put down the number, then write its unit next to it.

Consider the compound shown here: CCCSc1nc(N2CCC[C@@H](CC(=O)O)C2)ccc1C(=O)NC1CCCCC1 [AZD-4017] What is its recorded clearance? 9 mL/min/kg

---

- Target or test system: CYP3A4 (Homo sapiens, UniProt P08684)
- Sequence (P08684 whole entry): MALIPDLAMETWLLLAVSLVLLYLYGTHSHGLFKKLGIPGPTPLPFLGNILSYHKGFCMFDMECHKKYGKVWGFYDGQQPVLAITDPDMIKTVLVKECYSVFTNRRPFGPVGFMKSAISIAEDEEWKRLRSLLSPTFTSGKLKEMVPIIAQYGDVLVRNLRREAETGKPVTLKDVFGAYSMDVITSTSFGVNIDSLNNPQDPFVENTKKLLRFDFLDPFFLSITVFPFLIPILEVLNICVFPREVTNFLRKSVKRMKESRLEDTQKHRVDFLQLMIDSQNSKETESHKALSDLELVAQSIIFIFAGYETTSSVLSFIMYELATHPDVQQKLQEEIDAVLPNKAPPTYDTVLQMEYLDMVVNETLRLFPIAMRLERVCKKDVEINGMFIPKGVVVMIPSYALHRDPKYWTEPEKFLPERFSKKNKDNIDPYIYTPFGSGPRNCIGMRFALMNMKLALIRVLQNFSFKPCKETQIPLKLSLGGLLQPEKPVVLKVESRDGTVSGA
- Assay procedure: Inhibition of CYP3A4 at 10 uM
- Type: ADME
Recorded metric: inhibition at 10 µM

Consider the compound shown here: CCCSc1nc(N2CCC[C@@H](CC(=O)O)C2)ccc1C(=O)NC1CCCCC1 [AZD-4017] What is its recorded inhibition at 10 µM? < 25%

---

- Assay procedure: Fraction unbound in dog plasma after 18 to 19 hrs by equilibrium dialysis
- Format: ADME, cell-free, Canis lupus familiaris
Recorded metric: fraction unbound
Returns: the value as a bare number; no unit string appended.

Consider the compound shown here: CCCSc1nc(N2CCC[C@@H](CC(=O)O)C2)ccc1C(=O)NC1CCCCC1 [AZD-4017] What is its recorded fraction unbound? 0.023

---

- Assay procedure: Oral bioavailability in rat
- Assay type: ADME, organism-based
- Measurement setup: in vivo
Below, each of the compounds is paired with its reported bioavailability value.

# Compound, Endpoint result
records = [
    ("CCCSc1nc(N2CCC(CC(=O)O)CC2)ccc1C(=O)NC1CCCCC1", "90%"),
    ("CCCSc1nc(N2CCCCC2C(=O)O)ccc1C(=O)NC1CCCCC1 (stereo unspecified)", "> 100%"),
    ("CCCOc1nc(N2CCC[C@@H](CC(=O)O)C2)ccc1C(=O)NC1CCCCC1", "> 100%"),
    ("CCCSc1ncccc1C(=O)NC1CCCCC1", "0%"),
    ("CCCSc1nc(NC[C@H]2CC[C@H](C(=O)O)CC2)ccc1C(=O)NC1CCCCC1", "81%"),
]

Consider the compound shown here: CCCSc1ncccc1C(=O)NC1CCC(F)(F)CC1 What is its recorded bioavailability? 0%

---

- Target or test system: CYP1A2 (Homo sapiens, UniProt P05177)
- Sequence (P05177 whole entry): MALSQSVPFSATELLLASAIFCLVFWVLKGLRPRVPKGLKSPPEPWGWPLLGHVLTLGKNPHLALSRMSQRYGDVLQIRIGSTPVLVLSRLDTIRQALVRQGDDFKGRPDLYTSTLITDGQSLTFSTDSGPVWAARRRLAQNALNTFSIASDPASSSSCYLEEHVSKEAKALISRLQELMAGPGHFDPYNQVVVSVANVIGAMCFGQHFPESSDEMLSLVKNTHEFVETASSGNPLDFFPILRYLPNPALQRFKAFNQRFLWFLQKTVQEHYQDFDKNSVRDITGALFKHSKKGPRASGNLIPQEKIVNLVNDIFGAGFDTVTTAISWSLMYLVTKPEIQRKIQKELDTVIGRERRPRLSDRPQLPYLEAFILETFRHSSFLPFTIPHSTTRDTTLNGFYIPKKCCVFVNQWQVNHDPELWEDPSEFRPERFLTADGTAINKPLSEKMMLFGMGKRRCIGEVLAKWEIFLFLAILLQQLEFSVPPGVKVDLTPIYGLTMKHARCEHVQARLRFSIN
- Assay procedure: Inhibition of CYP1A2 at 10 uM
- Assay type: ADME
Recorded metric: inhibition at 10 µM

State its inhibition at 10 µM on CYP1A2 (Homo sapiens, UniProt P05177): CCCSc1nc(N2CCC[C@@H](CC(=O)O)C2)ccc1C(=O)NC1CCCCC1 [AZD-4017] < 25%

---

- Assay procedure: Clearance in po dosed Sprague-Dawley rat measured up to 24 hrs
- Measurement setup: in vivo
Recorded metric: CL/F at 24 h (L/h/kg)
Numeric only. Scale: L/h/kg

Consider the compound shown here: O=S(=O)(Cc1c(F)cccc1F)N1CCN(c2ncccc2C(F)(F)F)CC1 What is its recorded CL/F at 24 h? 1.2

---

- Assay procedure: Octanol-buffer partition coefficient, log D of the compound after 30 mins by shake flask method at pH 7.4
- Measurement setup: octanol/buffer
Recorded metric: logD at 0.5 h
Returns: the value as a bare number; no unit string appended.

# Molecule, Endpoint result
records = [
    ("CCCSc1ncccc1C(=O)NC1CCCCC1", 3.2),
]

Consider the molecule shown here: CCCSc1ncccc1C(=O)N1CCCC1c1ccncc1 (stereo not drawn) What is its recorded logD at 0.5 h? 2

Consider the molecule shown here: CCCSc1nc(NC[C@H]2CC[C@H](C(=O)O)CC2)ccc1C(=O)NC1CCCCC1 What is its recorded logD at 0.5 h? 2.6

---

- Assay procedure: Half life in mouse at 1 to 3 mg/kg, po
- Assay type: ADME, organism-based
- Parameters: dose 1-3 mg/kg, route oral
- Measurement setup: in vivo
Recorded metric: half-life
Put down the number, then write its unit next to it.

Consider the compound shown here: CCCSc1nc(N2CCC[C@@H](CC(=O)O)C2)ccc1C(=O)NC1CCCCC1 [AZD-4017] What is its recorded half-life? 3.2 h

---

- Assay procedure: Intrinsic clearance in rat hepatocytes assessed per 10^6 cells
Recorded metric: log10 of hepatocyte CLint (log10 of the value in µL/min/1e6 cells)
Log scale reminder: hepatocyte CLint in µL/min/1e6 cells, then log10 taken.

The cases that follow already have their log10 of hepatocyte CLint on record.
# Compound, log10 of hepatocyte CLint
data = [
    ("CCCSc1nc(N2CCCCC2C(=O)O)ccc1C(=O)NC1CCCCC1 (centres undefined)", 1.00),
    ("CCCSc1ncccc1C(=O)N[C@@H]1[C@@H]2CC3C[C@H]1C[C@@](O)(C3)C2", 1.69),
    ("CCCSc1nc(N2CCC(CC(=O)O)CC2)ccc1C(=O)NC1CCCCC1", 0.78),
]

Consider the compound shown here: CCCSc1nc(NC[C@H]2CC[C@H](C(=O)O)CC2)ccc1C(=O)NC1CCCCC1 What is its recorded log10 of hepatocyte CLint? 0.90

Consider the compound shown here: CCCSc1ncccc1C(=O)N(C)[C@H]1[C@@H]2CC3C[C@H]1C[C@@](O)(C3)C2 What is its recorded log10 of hepatocyte CLint? 2.15

Consider the compound shown here: CCCSc1ncccc1C(=O)N(C)[C@@H]1[C@@H]2CC3C[C@H]1C[C@@](O)(C3)C2 What is its recorded log10 of hepatocyte CLint? 2.15

---

- Assay procedure: Plasma clearance in dog at 1 to 3 mg/kg
- Assay type: ADME, organism-based, Canis lupus familiaris
- Design: dose 1-3 mg/kg
Recorded metric: clearance (mL/min/kg)
Numeric only. Scale: mL/min/kg

Consider the molecule shown here: CCCSc1nc(N2CCC[C@@H](CC(=O)O)C2)ccc1C(=O)NC1CCCCC1 [AZD-4017] What is its recorded clearance? 7

---

Below, each of the molecules is paired with its reported clearance value.
- Assay procedure: in vivo
- Measurement setup: rat
Numeric only. Scale: mL/min/kg

# Molecule, Recorded metric, Endpoint result
measured = [
    ("CCCSc1nc(N2CCC(C(=O)O)CC2)ccc1C(=O)NC1CCCCC1", "clearance", 8),
]

Consider the molecule shown here: CCCNc1nc(N2CCC[C@@H](CC(=O)O)C2)ccc1C(=O)NC1CCCCC1 What is its recorded clearance? 4

Consider the molecule shown here: CCCSc1nc(N2CCCC(C(=O)O)C2)ccc1C(=O)NC1CCCCC1 (centres undefined) What is its recorded clearance? 4

Consider the molecule shown here: CCCSc1ncccc1C(=O)N(C)C1CCOCC1 What is its recorded clearance? 46

Consider the molecule shown here: CCCSc1ncccc1C(=O)N1CCCC1c1ccncc1 (centres undefined) What is its recorded clearance? 39

Consider the molecule shown here: CCCSc1nc(NC[C@H]2CC[C@H](C(=O)O)CC2)ccc1C(=O)NC1CCCCC1 What is its recorded clearance? 8

Consider the molecule shown here: CCCSc1nc(N2CCC[C@H](CC(=O)O)C2)ccc1C(=O)NC1CCCCC1 What is its recorded clearance? 1

Consider the molecule shown here: CCCSc1ncccc1C(=O)N(C)C1CCCCC1 What is its recorded clearance? 48

Consider the molecule shown here: CCCOc1nc(N2CCC[C@@H](CC(=O)O)C2)ccc1C(=O)NC1CCCCC1 What is its recorded clearance? 9

Consider the molecule shown here: CCCSc1ncccc1C(=O)N[C@H]1CC[C@@H](C(=O)O)CC1 What is its recorded clearance? 2.5

Consider the molecule shown here: CCCCc1nc(N2CCC[C@@H](CC(=O)O)C2)ccc1C(=O)NC1CCCCC1 What is its recorded clearance? 4

Consider the molecule shown here: CCCSc1ncccc1C(=O)N[C@@H]1[C@@H]2CC3C[C@H]1C[C@@](O)(C3)C2 What is its recorded clearance? 110

Consider the molecule shown here: CCCSc1nc(N2CCCCC2C(=O)O)ccc1C(=O)NC1CCCCC1 (centres undefined) What is its recorded clearance? 12

Consider the molecule shown here: CCCSc1ncccc1C(=O)N(C)[C@@H]1[C@@H]2CC3C[C@H]1C[C@@](O)(C3)C2 What is its recorded clearance? 24

Consider the molecule shown here: CCCSc1nc(N2CCC[C@@H](CC(=O)O)C2)ccc1C(=O)NC1CCCCC1 What is its recorded clearance? 9

Consider the molecule shown here: CCCSc1nc(N[C@H]2CC[C@H](C(=O)O)CC2)ccc1C(=O)NC1CCCCC1 What is its recorded clearance? 6

Consider the molecule shown here: CCCSc1nc(N2CCC(CC(=O)O)CC2)ccc1C(=O)NC1CCCCC1 What is its recorded clearance? 4

Consider the molecule shown here: CCCN(C)c1nc(N2CCC[C@@H](CC(=O)O)C2)ccc1C(=O)NC1CCCCC1 What is its recorded clearance? 15

Consider the molecule shown here: CCCSc1ncccc1C(=O)NC1CCC(F)(F)CC1 What is its recorded clearance? 30
